# IC50 per entry
tested on: Influenza A virus; experiment: Antiviral activity against Influenza A virus A/Yamaguchi/20/06(H1N1) infected in dog AX4 cells preincubated for 1 hr followed by infection measured after 19 to 20 hrs by galactosidase-based fluorescence assay and peroxidase-based chromogenic assay; type: functional, organism-based

[
  {
    "moleculeSmiles": "CC(=O)N[C@H]1[C@H]([C@H](O)[C@H](O)CNC(=O)C2CC2)OC(C(=O)O)=C[C@@H]1NC(=N)N.O=C(O)C(F)(F)F",
    "IC50, µM": 0.0276
  },
  {
    "moleculeSmiles": "CCCCC(=O)NC[C@@H](O)[C@@H](O)[C@@H]1OC(C(=O)O)=C[C@H](NC(=N)N)[C@H]1NC(C)=O.O=C(O)C(F)(F)F",
    "IC50, µM": 0.39
  },
  {
    "moleculeSmiles": "CCC(CC)OC[C@@H]1CC(C(=O)O)=C[C@H](N)[C@H]1NC(C)=O",
    "IC50, µM": 0.00171
  }
]
